Form field: Cmax (one value per entry).
Assay: PK protocol: pharmacokinetic parameters in male Sprague Dawley rats
Type: in vivo
Conditions: plasma, oral administration, rat, dose per compound in Dose column (3 or 5 mg/kg)
Note: unit ng/mL is implicit; provide only the numeric part.

[[record]]
structure_as_smiles = "CC(C)c1cc(F)cc(C(C)C)c1NC(=O)NS(=O)(=O)c1cc(C(=O)N(C)C)n(C)n1"
units_text = "ng/mL"
recorded_value = 495


Let us move to another entry and its Cmax.
Give reported Cmax value for CN(C)C(=O)c1cc(S(=O)(=O)NC(=O)Nc2c3c(cc4c2CCC4)CCC3)nn1C 600

###

Biological target: NLRP3 (Homo sapiens)
Sequence (Q96P20 whole entry): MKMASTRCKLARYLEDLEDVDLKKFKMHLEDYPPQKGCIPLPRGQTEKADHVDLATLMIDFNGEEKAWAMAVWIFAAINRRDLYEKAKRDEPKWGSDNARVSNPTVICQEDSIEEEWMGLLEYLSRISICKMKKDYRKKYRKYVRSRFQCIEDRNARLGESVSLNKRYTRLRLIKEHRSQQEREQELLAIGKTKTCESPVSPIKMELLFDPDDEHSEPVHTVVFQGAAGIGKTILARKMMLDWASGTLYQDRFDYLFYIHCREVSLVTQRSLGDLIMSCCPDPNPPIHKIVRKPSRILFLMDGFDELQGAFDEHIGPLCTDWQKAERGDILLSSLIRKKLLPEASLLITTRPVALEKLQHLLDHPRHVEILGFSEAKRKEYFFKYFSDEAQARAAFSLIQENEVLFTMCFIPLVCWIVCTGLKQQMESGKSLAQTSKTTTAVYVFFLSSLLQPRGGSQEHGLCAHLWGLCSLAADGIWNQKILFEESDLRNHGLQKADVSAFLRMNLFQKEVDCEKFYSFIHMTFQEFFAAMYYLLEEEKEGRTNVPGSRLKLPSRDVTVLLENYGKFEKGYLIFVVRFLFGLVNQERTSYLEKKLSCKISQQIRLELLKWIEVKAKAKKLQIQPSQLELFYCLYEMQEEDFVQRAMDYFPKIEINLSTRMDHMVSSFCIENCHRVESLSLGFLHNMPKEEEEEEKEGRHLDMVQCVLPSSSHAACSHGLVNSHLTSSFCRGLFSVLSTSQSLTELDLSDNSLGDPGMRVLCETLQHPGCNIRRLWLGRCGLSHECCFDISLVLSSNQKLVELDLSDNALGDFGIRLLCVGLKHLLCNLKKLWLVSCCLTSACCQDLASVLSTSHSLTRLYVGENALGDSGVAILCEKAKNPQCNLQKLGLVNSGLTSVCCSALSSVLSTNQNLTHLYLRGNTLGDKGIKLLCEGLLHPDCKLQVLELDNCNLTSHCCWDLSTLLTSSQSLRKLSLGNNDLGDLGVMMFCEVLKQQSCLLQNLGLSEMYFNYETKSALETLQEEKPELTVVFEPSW
Assay: THP-1 cells pyroptosis assay
Type: cell-based
Parameters: Seed THP-1 cells (25,000 cells/well) containing 1.0 μg/ml LPS; host or cells: THP-1 cells, LPS-primed, nigericin-stimulated
Details: 1.0 μg/ml LPS, nigericin 5 μM, resazurin readout
outcome-measure: IC50

[[record]]
structure_as_smiles = "CC(C)c1cccc(C(C)C)c1NC(=O)NS(=O)(=O)c1cc(C(=O)N2CCOCC2)n(C)n1"
outcome_measure = "IC50"
recorded_value = "640 to 2560 nM"


Return IC50 (reported value) for this compound: CC(C)c1cc(Cl)cc(C(C)C)c1NC(=O)NS(=O)(=O)c1cc(C(=O)N(C)C)n(C)n1 40 to 160 nM

Identify measured IC50 associated with Cn1nc(S(=O)(=O)NC(=O)Nc2c3c(cc4c2CCC4)CCC3)cc1C(=O)N1CCCC1 640 to 2560 nM

Indicate the recorded IC50 value for this compound: CC(C)c1cc(F)cc(C(C)C)c1NC(=O)NS(=O)(=O)c1cc(C(=O)N2CCC2)n(C(C)C)n1 160 to 640 nM

Fill in reported IC50 for this entry: CN(C)C(=O)c1cc(S(=O)(=O)NC(=O)Nc2c3c(cc4c2CCC4)CCC3)nn1C 40 to 160 nM

Provide one value: measured IC50 of CC(C)N(C)C(=O)c1cc(S(=O)(=O)NC(=O)Nc2c3c(cc4c2CCC4)CCC3)nn1C 40 to 160 nM

Give IC50 for the following compound: CN1CCn2nc(S(=O)(=O)NC(=O)Nc3c4c(cc5c3CCC5)CCC4)cc2C1=O 2560 to 10000 nM

# return recorded IC50 for entry CC(C)c1cccc(C(C)C)c1NC(=O)NS(=O)(=O)c1cc(C(=O)N2CCCC2)n(C)n1 640 to 2560 nM

###

Target: NLRP3 (Homo sapiens)
Test: THP-1 cells pyroptosis assay
Assay type: cell-based
Design: Seed THP-1 cells (25,000 cells/well) containing 1.0 μg/ml LPS; host or cells: THP-1 cells, LPS-primed, nigericin-stimulated
Conditions: 1.0 μg/ml LPS, nigericin 5 μM, resazurin readout
pIC50: −log10 of the molar value.
pIC50: recorded values

Some solved cases for reference:
[[record]]
structure_as_smiles = "COCCN(CCOC)C(=O)c1cc(S(=O)(=O)NC(=O)Nc2c(C(C)C)cccc2C(C)C)nn1C"
outcome_measure = "pIC50"
recorded_value = "5.00 to 5.59"

[[record]]
structure_as_smiles = "COCCN(C)C(=O)c1cc(S(=O)(=O)NC(=O)Nc2c3c(cc4c2CCC4)CCC3)nn1C"
outcome_measure = "pIC50"
recorded_value = "6.80 to 7.40"

[[record]]
structure_as_smiles = "COCCN(CCOC)C(=O)c1cc(S(=O)(=O)NC(=O)Nc2c3c(cc4c2CCC4)CCC3)nn1C"
outcome_measure = "pIC50"
recorded_value = "6.80 to 7.40"


Answer briefly: pIC50 recorded on NLRP3 (Homo sapiens) for CCN(CC)C(=O)c1cc(S(=O)(=O)NC(=O)Nc2c(C(C)C)cc(F)cc2C(C)C)nn1C 6.19 to 6.80

Sourced from patent US20210122739A1
